- assay-target: GCS enzyme contained within Golgi preparations isolated from human A375 malignant melanoma skin cells (Homo sapiens, UniProt Q16739)
- Construct: endogenous levels of GCS enzyme contained within Golgi preparations isolated from human A375 malignant melanoma skin cells; endogenous in cells
- Sequence (Q16739 whole entry): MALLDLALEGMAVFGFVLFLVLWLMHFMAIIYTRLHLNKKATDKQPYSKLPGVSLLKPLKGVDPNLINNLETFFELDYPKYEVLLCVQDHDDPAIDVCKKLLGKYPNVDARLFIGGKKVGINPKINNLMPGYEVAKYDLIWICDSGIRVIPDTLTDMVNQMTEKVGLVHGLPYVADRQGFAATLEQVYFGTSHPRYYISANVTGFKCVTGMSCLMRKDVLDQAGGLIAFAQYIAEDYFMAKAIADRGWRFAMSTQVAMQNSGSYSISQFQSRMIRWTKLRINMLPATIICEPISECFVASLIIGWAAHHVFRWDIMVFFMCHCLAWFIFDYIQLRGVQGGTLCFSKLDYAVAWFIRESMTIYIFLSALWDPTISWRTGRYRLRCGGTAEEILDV
- assay-procedure: UDP-Glo glucosylceramide synthase biochemical assay
- condition-info: crude Golgi preparation from A375 cells; C6 ceramide and UDP-glucose substrates; 20 h incubation at room temperature; UDP detected by luminescence
pEC50: −log10 of the molar value.
measurement-name: pEC50

[[record]]
smiles_notation = "CC(C)[C@H](CO)N1Cc2cccc(NC(=O)c3c(Cl)ccc(F)c3Cl)c2C1=O"
measurement_name = "pEC50"
value_reported = 7.59

[[record]]
smiles_notation = "Cn1cc2c(C(=O)Nc3cc(F)cc4c3C(=O)N([C@H](C3CC3)C(C)(C)O)C4)cccc2n1"
measurement_name = "pEC50"
value_reported = 8.04

[[record]]
smiles_notation = "Cn1cc2c(C(=O)Nc3cccc4c3C(=O)N(C(C3CC3)C3CC3)C4)cccc2n1"
measurement_name = "pEC50"
value_reported = 7.31

[[record]]
smiles_notation = "Cc1cnc(-c2ccc(-c3cccc4c3C(=O)N([C@H](C3CC3)C(C)(C)O)C4)cc2)o1"
measurement_name = "pEC50"
value_reported = 6.74

